Experiment: Whole blood pharmacokinetics, LC-MS/MS, noncompartmental analysis
Format: in vivo, patients
Settings: human, whole blood, iv, 25 mg
experimental.readout: half-life

smiles_data=CO[C@H]1C[C@@H]2CC[C@@H](C)[C@@](O)(O2)C(=O)C(=O)N2CCCC[C@H]2C(=O)O[C@H]([C@H](C)C[C@@H]2CC[C@@H](OP(C)(C)=O)[C@H](OC)C2)CC(=O)[C@H](C)/C=C(\C)[C@@H](O)[C@@H](OC)C(=O)[C@H](C)C[C@H](C)/C=C/C=C/C=C/1C result="46.2 h"
